Reference for the values: ChEMBL document CHEMBL3632609

Test system: HT-29
protocol_summary: Cytotoxicity against human HT-29 cells assessed as cell survival after 96 hrs by sulforhodamine B assay
Assay type: functional, cell-based
protocol_conditions: HT-29, 96 h
Field: label. Allowed values: condition met (EC50 < 10 µM) or condition not met (EC50 >= 10 µM).

Reference set (4 entries):
record_smiles=Cc1cccc(COC(=O)[C@]23CCC(C)(C)C[C@H]2C2=CC[C@@H]4[C@@]5(C)CC[C@H](O)[C@@](C)(CO)[C@@H]5CC[C@@]4(C)[C@]2(C)CC3)c1 label_value="condition not met"
record_smiles=CC1(C)CC[C@]2(C(=O)NCc3ccccc3)CC[C@]3(C)C(=CC[C@@H]4[C@@]5(C)CC[C@H](O)[C@@](C)(CO)[C@@H]5CC[C@]43C)[C@@H]2C1 label_value="condition not met"
record_smiles=CC1(C)CC[C@]2(C(=O)OCc3ccc([N+](=O)[O-])cc3)CC[C@]3(C)C(=CC[C@@H]4[C@@]5(C)CC[C@H](O)[C@@](C)(CO)[C@@H]5CC[C@]43C)[C@@H]2C1 label_value="condition met"
record_smiles=CC1(C)CC[C@]2(C(=O)OCc3c(Cl)cccc3Cl)CC[C@]3(C)C(=CC[C@@H]4[C@@]5(C)CC[C@H](O)[C@@](C)(CO)[C@@H]5CC[C@]43C)[C@@H]2C1 label_value="condition not met"

Field: next compound
Find out if reported EC50 for `Cc1ccc(COC(=O)[C@]23CCC(C)(C)C[C@H]2C2=CC[C@@H]4[C@@]5(C)CC[C@H](O)[C@@](C)(CO)[C@@H]5CC[C@@]4(C)[C@]2(C)CC3)cc1` is less than 10 µM condition not met
